Taken from patent US20150368338A1.

molecular target: T1, IFN-αC (human, UniProt P01566 24-189); assay: ProteOn, one antigen concentration
T1 construct: also called IFN-α10; alpha C
measured_property: Kd (nM)
Please state the figure in nM; there is no need to write the unit.

[
  {
    "binder": "IFWM3336 (antibody, V domains shown, VH IFWH591, VL IFWL1085; converted mAb; also called IFWB3071) VH: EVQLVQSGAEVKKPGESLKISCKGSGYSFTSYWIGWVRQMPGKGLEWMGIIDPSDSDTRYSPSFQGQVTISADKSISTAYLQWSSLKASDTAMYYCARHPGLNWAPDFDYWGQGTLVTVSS VL: DIQMTQSPSSLSASVGDRVTITCRASQSIRNNYLNWYQQKPGKAPKLLIYAASSLQSGVPSRFSGSGSGTDFTLTISSLQPEDFATYYCQQGYDTPLTFGQGTKVEIK",
    "value_units": "nM",
    "observed_result": 0.047
  },
  {
    "binder": "IFWM3345 (antibody, V domains shown, VH IFWH624, VL IFWL1000; converted mAb; also called IFWB3080) VH: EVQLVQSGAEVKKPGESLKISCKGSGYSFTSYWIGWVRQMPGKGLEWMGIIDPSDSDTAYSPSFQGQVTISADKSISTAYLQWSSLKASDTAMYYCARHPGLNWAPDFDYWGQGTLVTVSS VL: DIQMTQSPSSLSASVGDRVTITCRASQSITNFLNWYQQKPGKAPKLLIYFASSLQSGVPSRFSGSGSGTDFTLTISSLQPEDFATYYCQQSLDFPLTFGQGTKVEIK",
    "value_units": "nM",
    "observed_result": 0.072
  },
  {
    "binder": "IFWM3333 (antibody, V domains shown, VH IFWH591, VL IFWL1076; converted mAb; also called IFWB3068) VH: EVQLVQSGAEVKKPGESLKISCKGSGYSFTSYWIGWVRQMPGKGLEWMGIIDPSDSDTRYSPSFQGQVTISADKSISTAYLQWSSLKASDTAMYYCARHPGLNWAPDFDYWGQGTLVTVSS VL: DIQMTQSPSSLSASVGDRVTITCRASQSIDNNNLNWYQQKPGKAPKLLIYAASSLQSGVPSRFSGSGSGTDFTLTISSLQPEDFATYYCQQGYDWPLTFGQGTKVEIK",
    "value_units": "nM",
    "observed_result": 0.065
  }
]

Q) Can you share its Kd? I mean this binder: IFWM3303 (antibody, V domains shown, VH IFWH591, VL IFWL992; converted mAb; also called IFWB3038) VH: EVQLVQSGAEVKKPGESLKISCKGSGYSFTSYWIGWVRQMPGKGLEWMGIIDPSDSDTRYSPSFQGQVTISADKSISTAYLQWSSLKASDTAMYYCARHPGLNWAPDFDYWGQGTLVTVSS VL: DIQMTQSPSSLSASVGDRVTITCRASQSIGSFLNWYQQKPGKAPKLLIYFASSLQSGVPSRFSGSGSGTDFTLTISSLQPEDFATYYCQQSYSIPITFGQGTKVEIK
A) 0.079

Q) Can you share its Kd? I mean this binder: IFWM3339 (antibody, V domains shown, VH IFWH591, VL IFWL1093; converted mAb; also called IFWB3074) VH: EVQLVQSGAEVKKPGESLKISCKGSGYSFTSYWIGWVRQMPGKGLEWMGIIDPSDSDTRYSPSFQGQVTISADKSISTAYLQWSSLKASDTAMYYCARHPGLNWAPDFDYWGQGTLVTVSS VL: DIQMTQSPSSLSASVGDRVTITCRASQSIANNDLNWYQQKPGKAPKLLIHWASSLQSGVPSRFSGSGSGTDFTLTISSLQPEDFATYYCQQDYDWPLTFGQGTKVEIK
A) 0.059
